Can you tell me Bmax for the items I'm about to list?
Molecular target: T1, CH2-4 constant domains of human IgE linked to a transmembrane protein, on 293 cells (human, UniProt P01854-1 104-428)
T1 construct: domain: CH2-4 constant domains; also called human IgE-expressing 293 cells
T1 sequence (P01854 other isoform, or with tags, fused parts or gaps): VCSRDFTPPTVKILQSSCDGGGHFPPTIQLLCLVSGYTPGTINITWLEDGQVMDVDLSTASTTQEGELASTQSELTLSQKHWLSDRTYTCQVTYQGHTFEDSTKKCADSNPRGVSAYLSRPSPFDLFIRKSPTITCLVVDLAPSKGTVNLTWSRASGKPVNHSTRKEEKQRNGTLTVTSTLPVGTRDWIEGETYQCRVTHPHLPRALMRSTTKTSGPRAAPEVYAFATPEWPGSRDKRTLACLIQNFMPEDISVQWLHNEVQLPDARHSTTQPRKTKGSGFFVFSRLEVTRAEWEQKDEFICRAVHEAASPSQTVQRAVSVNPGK
Test: flow cytometry, 293 cells expressing human IgE CH2-4
All answers are understood in MFI, so give the number only.

// query Request the reported Bmax associated with hzB10v24-NNT (Fc fusion, monomeric) VHH-Fc: EVQLLESGGGEVQPGGSLRLSCVASGLTFSSYNMGWVRQAPGKEREFVGLSGSSSTSTYYADSVKGRFTISRDNSKNTVYLQMNSLKPEDTAVYYCAARRLLSTYWSDRSWDFWGQGTQVTVEPGGPSVFLFPPKPKDTLMISRTPEVTCVVVDVSHEDPEVKFNWYVDGVEVHNAKTKPREEQYNSTYRVVSVLTVLHQDWLNGKEYKCKVSNKALPAPIEKTISKAKGQPREPQVYTLPPSRDELTKNQVNLTCLVKGFYPSDIAVEWESNGQPENNYKTTPPVLDSDGSFFLNSTLTVDKSRWQQGNVFSCSVMHEALHNHYTQKSLSLSPGK
// result 1.92e+06

// query What do you get for hzB10v22-NNT (Fc fusion, monomeric) VHH-Fc: EVQLLESGGGEVQPGGSLRLSCVASGLTFSSYNMGWLRQAPGKEREFVGLSGSSSTSTYYADSVKGRFTISRDNSKNTVYLQMNSLRPEDTAVYYCAARRLLSTYWSDRSWDFWGQGTQVTVEPGGPSVFLFPPKPKDTLMISRTPEVTCVVVDVSHEDPEVKFNWYVDGVEVHNAKTKPREEQYNSTYRVVSVLTVLHQDWLNGKEYKCKVSNKALPAPIEKTISKAKGQPREPQVYTLPPSRDELTKNQVNLTCLVKGFYPSDIAVEWESNGQPENNYKTTPPVLDSDGSFFLNSTLTVDKSRWQQGNVFSCSVMHEALHNHYTQKSLSLSPGK ?
// result 2.08e+06

// query What do you get for hzB10v21-NNT (Fc fusion, monomeric) VHH-Fc: EVQLLESGGGEVQPGGSLRLSCVASGLTFSSYNMGWLRQAPGKEREFVGLSGSSSTSTYYADSVKGRFTISRDNSKNTVYLQMSSLKPEDTAVYYCAARRLLSTYWSDRSWDFWGQGTQVTVEPGGPSVFLFPPKPKDTLMISRTPEVTCVVVDVSHEDPEVKFNWYVDGVEVHNAKTKPREEQYNSTYRVVSVLTVLHQDWLNGKEYKCKVSNKALPAPIEKTISKAKGQPREPQVYTLPPSRDELTKNQVNLTCLVKGFYPSDIAVEWESNGQPENNYKTTPPVLDSDGSFFLNSTLTVDKSRWQQGNVFSCSVMHEALHNHYTQKSLSLSPGK ?
// result 1.72e+06

// query What do you get for hzB10v25-NNT (Fc fusion, monomeric) VHH-Fc: EVQLLESGGGEVQPGGSLRLSCVASGLTFSSYNMGWLRQAPGKEREFVSLSGSSSTSTYYADSVKGRFTISRDNSKNTVYLQMNSLKPEDTAVYYCAARRLLSTYWSDRSWDFWGQGTQVTVEPGGPSVFLFPPKPKDTLMISRTPEVTCVVVDVSHEDPEVKFNWYVDGVEVHNAKTKPREEQYNSTYRVVSVLTVLHQDWLNGKEYKCKVSNKALPAPIEKTISKAKGQPREPQVYTLPPSRDELTKNQVNLTCLVKGFYPSDIAVEWESNGQPENNYKTTPPVLDSDGSFFLNSTLTVDKSRWQQGNVFSCSVMHEALHNHYTQKSLSLSPGK ?
// result 2.01e+06

// query What do you get for hzB10v23-NNT (Fc fusion, monomeric) VHH-Fc: EVQLLESGGGEVQPGGSLRLSCVASGLTFSSYNMGWLRQAPGKEREFVGLSGSSSTSTYYADSVKGRFTISRDNSKNTVYLQMNSLKAEDTAVYYCAARRLLSTYWSDRSWDFWGQGTQVTVEPGGPSVFLFPPKPKDTLMISRTPEVTCVVVDVSHEDPEVKFNWYVDGVEVHNAKTKPREEQYNSTYRVVSVLTVLHQDWLNGKEYKCKVSNKALPAPIEKTISKAKGQPREPQVYTLPPSRDELTKNQVNLTCLVKGFYPSDIAVEWESNGQPENNYKTTPPVLDSDGSFFLNSTLTVDKSRWQQGNVFSCSVMHEALHNHYTQKSLSLSPGK ?
// result 1.96e+06
